Assign inhibition to each entry below.
# protocol: Mycobacterium tuberculosis growth inhibition, primary screen (AID 1259343)
# test.conditions: at 10 µM, hits give high values
Out of some 6,200 compounds screened, about 2,900 (47%) were called active. So high a share suggests a set chosen from earlier hits. The list shows a part of the results.

Quick check: inhibition of Cc1cc(OCc2cccc(Cl)c2)ccc1N ?
92.4% (active)

Same read-out for CC(CNC(=O)CCc1nnc(CCC2CCCCC2)o1)c1ccccc1 (centres undefined) ?
57.9% (active)

What do you have for Clc1ccc(Nc2nccc3c2ncn3Cc2ccccc2)cc1 ?
57.3% (active)

Moving on to the next compound: Cn1ccc(NC(=O)c2cc3c(s2)CCC(C(C)(C)C)C3)n1 (centres undefined)
49.2% (inactive)

And what about the compound Cc1c(C(=O)NCc2ccc(Cl)c(Cl)c2)sc(=O)n1Cc1cccc(F)c1 ?
41.3% (inactive)

What about Cc1nc(NC(=O)CNC(=O)Cc2cccc(F)c2)sc1SCC#N ?
81.8% (active)

State the recorded inhibition for every item in the following list.
1. Fc1ccc(-c2nnc(-c3ccc4c(c3)OCO4)o2)cc1
2. O=C1NC(c2sc3ccccc3c2Cl)Nc2ccccc21 (centres undefined)
3. CC1(C)CC(=O)C(C(=O)Nc2sc3ccccc3c2Cl)C(=O)C1
4. Cc1cc2ncn(Cc3ccc(C(C)C)cc3)c2cc1C
5. Nc1ccc(-n2cccc2C(=O)O)cc1
6. Oc1ccccc1C1CC(c2ccc3c(c2)OCO3)=NC(c2cccc(F)c2)N1 (centres undefined)
7. Cc1ccc(-c2ccsc2C(=O)NS(=O)(=O)N2CCCCC2)cc1

70.5% (active)
28.9% (inactive)
98.3% (active)
-9.75% (inactive)
93.6% (active)
-19.4% (inactive)
20.7% (inactive)

Report inhibition for each item below.
1. Cc1oc(-c2cc3c(cc2Cl)OCO3)nc1CN(C)Cc1ccc(C(F)(F)F)cc1
2. NC(=S)N=Nc1ccc(NN=C(N)N)cc1
3. CC(C)c1ccc(Nc2nccc3c2ncn3Cc2ccccc2)cc1
4. CN(C)S(=O)(=O)Oc1ccc(C(=O)c2ccccc2)cc1
5. Fc1ccccc1-c1nnc(-c2ccc3c(c2)OCO3)o1

["46.8% (inactive)", "101% (active)", "73% (active)", "51.1% (active)", "-0.93% (inactive)"]
